Data provenance: ChEMBL document CHEMBL2163270

procedure_text: Aqueous solubility of the compound
Format: physicochemical
experimental_parameters: aqueous medium
endpoint_name: solubility (nM)
Numeric answer only, unit nM assumed.

[in] solubility for COc1ccc(S(=O)(=O)N(Cc2ccc3c(c2)C=CC(C)(C)O3)c2ccccc2)cc1OC ?
[out] 9

* * *

measurement_target: UniProtKB Q09472
Sequence (Q09472 whole entry, the tested form may be a part): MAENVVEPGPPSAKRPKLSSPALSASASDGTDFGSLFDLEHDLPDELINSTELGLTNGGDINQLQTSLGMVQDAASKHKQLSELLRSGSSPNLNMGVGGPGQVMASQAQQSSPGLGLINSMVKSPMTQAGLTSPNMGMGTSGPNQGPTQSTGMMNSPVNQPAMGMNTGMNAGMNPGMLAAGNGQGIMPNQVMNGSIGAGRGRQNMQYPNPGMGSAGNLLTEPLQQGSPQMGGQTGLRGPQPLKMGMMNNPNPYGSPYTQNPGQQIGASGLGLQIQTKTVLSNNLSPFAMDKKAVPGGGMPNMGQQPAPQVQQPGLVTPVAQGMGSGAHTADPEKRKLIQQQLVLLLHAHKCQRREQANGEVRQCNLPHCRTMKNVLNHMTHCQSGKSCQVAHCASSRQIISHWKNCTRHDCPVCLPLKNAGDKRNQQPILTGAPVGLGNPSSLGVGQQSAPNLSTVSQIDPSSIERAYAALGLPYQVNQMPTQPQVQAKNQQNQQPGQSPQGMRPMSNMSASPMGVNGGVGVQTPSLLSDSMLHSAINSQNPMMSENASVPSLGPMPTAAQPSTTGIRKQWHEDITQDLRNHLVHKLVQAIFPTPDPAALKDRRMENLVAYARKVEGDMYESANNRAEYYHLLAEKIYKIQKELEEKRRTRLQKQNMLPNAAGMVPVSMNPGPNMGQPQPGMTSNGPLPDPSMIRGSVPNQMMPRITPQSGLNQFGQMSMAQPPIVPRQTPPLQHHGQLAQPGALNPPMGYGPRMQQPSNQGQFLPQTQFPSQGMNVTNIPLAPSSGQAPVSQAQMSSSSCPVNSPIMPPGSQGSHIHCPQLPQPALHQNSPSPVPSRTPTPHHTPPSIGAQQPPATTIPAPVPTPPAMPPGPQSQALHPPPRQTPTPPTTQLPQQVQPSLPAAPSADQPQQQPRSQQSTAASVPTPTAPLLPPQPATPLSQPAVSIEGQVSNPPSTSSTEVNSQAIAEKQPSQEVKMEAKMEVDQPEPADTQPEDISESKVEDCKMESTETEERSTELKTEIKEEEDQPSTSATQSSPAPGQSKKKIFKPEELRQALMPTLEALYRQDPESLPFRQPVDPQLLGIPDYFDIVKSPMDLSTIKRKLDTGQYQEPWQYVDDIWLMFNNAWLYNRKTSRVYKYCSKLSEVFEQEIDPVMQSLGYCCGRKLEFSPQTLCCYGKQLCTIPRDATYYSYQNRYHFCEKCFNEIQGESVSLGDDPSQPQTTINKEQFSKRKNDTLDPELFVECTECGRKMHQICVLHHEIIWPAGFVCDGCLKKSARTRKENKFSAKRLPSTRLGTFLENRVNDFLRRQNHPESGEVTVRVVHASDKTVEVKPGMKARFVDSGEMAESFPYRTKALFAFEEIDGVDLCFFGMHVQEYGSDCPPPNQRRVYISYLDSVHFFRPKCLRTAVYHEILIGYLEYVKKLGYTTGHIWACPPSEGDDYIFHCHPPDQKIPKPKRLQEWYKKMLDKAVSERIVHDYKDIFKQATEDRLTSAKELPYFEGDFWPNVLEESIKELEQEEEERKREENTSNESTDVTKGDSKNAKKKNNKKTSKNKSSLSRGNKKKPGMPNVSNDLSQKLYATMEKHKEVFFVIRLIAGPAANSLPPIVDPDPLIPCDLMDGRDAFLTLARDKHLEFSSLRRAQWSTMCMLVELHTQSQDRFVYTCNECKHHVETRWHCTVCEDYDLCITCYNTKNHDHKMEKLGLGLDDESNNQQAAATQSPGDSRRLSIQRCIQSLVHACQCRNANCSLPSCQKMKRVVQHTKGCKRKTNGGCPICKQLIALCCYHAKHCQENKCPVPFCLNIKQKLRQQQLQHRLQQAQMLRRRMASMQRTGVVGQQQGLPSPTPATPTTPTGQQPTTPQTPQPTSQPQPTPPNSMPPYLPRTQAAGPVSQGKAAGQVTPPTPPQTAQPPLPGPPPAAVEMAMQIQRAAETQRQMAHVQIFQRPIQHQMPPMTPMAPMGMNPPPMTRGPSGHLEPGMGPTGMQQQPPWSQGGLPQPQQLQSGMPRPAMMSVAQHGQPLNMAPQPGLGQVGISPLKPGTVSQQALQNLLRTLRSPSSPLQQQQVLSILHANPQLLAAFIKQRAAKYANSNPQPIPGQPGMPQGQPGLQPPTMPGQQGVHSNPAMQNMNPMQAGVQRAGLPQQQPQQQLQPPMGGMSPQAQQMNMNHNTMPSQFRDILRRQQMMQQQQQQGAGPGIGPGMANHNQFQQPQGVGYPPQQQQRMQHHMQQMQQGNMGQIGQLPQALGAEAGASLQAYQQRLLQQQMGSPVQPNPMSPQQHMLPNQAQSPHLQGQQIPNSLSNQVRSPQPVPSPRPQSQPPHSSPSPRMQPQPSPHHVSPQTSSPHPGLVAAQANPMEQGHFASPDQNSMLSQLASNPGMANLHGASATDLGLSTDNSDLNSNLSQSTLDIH
procedure_text: Inhibition of P300 CH1 domain-mediated HIF1 transcriptional activity in human LN229-V6R cells assessed as remaining activity at 2.5 uM incubated for 1 hr under normoxia followed by 24 hrs under hypoxia by luciferase reporter gene assay
Assay type: cell-based
The following compounds are listed with their measured Activity values.
Answers without a unit are incomplete; give the number and then its unit.

Sample records with Activity:
smi=CC(C)N(Cc1ccc2c(c1)C=CC(C)(C)O2)S(=O)(=O)c1ccccn1 measurement_target="UniProtKB Q09472" result=55%
smi=COc1ccc(S(=O)(=O)N(Cc2ccc3c(c2)C=CC(C)(C)O3)c2ccccc2)cc1OC measurement_target="UniProtKB Q09472" result=28%

# ---- query compound ----
[in] Activity for CC(C)CN(Cc1ccc2c(c1)C=CC(C)(C)O2)S(=O)(=O)c1nccs1 ?
[out] 78%

* * *

procedure_text: 1-Octanol-phosphate buffer distribution coefficient, log P of the compound at pH 7.4 by HPLC analysis
Assay type: physicochemical
endpoint_name: logD
Lab note: jot down the number only; don't add units.

Sample records with logD:
smi=CC(C)CN(Cc1ccc2c(c1)C=CC(C)(C)O2)S(=O)(=O)c1nccs1 recorded_number=4.4
smi=CC(C)CN(Cc1cc(O)c2c(c1)C=CC(C)(C)O2)S(=O)(=O)c1ccncc1 recorded_number=1.2
smi=CC(C)CN(Cc1ccc2c(c1)C=CC(C)(C)O2)S(=O)(=O)c1ccccn1 recorded_number=4.1
smi=CC1(C)C=Cc2cc(CN(C3CCC3)S(=O)(=O)c3ccccn3)ccc2O1 recorded_number=3

# ---- query compound ----
[in] logD for CC(C)CN(Cc1cc(O)c2c(c1)C=CC(C)(C)O2)S(=O)(=O)c1ccccn1 ?
[out] 1.3

* * *

The following molecules are listed with their measured IC50 values.
procedure_text: Cytotoxicity against human LN229 cells transfected with V6R incubated for 1 hr under normoxic condition followed by 14 days under hypoxic condition by clonogenecity assay
Type: functional, cell-based
experimental_parameters: LN-229
Numeric answer only, unit µM assumed.

smi=CC(C)N(Cc1ccc2c(c1)C=CC(C)(C)O2)S(=O)(=O)c1ccccn1 recorded_number=134

# ---- query molecule ----
[in] IC50 for CC(C)CN(Cc1cc(O)c2c(c1)C=CC(C)(C)O2)S(=O)(=O)c1ccncc1 ?
[out] 30

* * *

procedure_text: Aqueous solubility of the compound at pH 3 after 90 mins by laser nephelometric analysis
Assay type: physicochemical
experimental_parameters: aqueous medium
endpoint_name: solubility kinetic at 1.5 h

smi=CC(C)N(Cc1ccc2c(c1)C=CC(C)(C)O2)S(=O)(=O)c1ccccn1 result="17 µg/mL"

[in] solubility kinetic at 1.5 h for COc1ccc(S(=O)(=O)N(Cc2ccc3c(c2)C=CC(C)(C)O3)c2ccccc2)cc1OC ?
[out] < 15 µg/mL
